Values were extracted from PubChem BioAssay (NCI).

For each entry below, report its TGI value.
# Test system: SW-620 colon
# assay-info: NCI tumour cell line growth inhibition, 48 h

What value of measured TGI is listed for CC12C=CC(C)(O1)C1C2c2ccccc2S1(=O)=O (stereo not drawn) ? > 100 µM

What value of measured TGI is listed for COC(=O)c1[nH]nc(-c2ccccc2)c1N1CCCCC1 ? > 100 µM

What value of measured TGI is listed for Oc1c(I)cc(I)cc1CNCCCN(Cc1ccccn1)Cc1ccccn1 ? 2.41 µM

What value of measured TGI is listed for COc1ccc(C2C(C(=O)O)=C(COC(C)=O)Oc3cc4c(cc32)OCO4)cc1 (stereo not drawn) ? > 100 µM

What value of measured TGI is listed for CC1CCC2c3c([nH]c4ccccc34)C3C(=O)N(C4CCCCC4)C(=O)C3C2C1 (stereo not drawn) ? > 100 µM

What value of measured TGI is listed for O=S(=O)(NC(=S)Nc1ccccc1)c1ccc(N2N=C3c4ccccc4CC3C2c2ccc(Cl)cc2)cc1 (stereo not drawn) ? 75.7 µM

What value of measured TGI is listed for COc1cc(C)c(C(=O)/C=C/c2cc(OC)c(O)c(OC)c2)cc1O ? 70.8 µM

What value of measured TGI is listed for OC(COc1ccc(Cl)cc1Cl)CN1CCCC1 (stereo not drawn) ? > 100 µM

What value of measured TGI is listed for Cc1cc(C)cc(Nc2nccc(-c3c(-c4ccc(F)cc4)ncn3C3CCNCC3)n2)c1 ? 3.07 µM

What value of measured TGI is listed for N#Cc1cc2cc3c4c(c2oc1=O)CCCN4CCC3 ? > 100 µM

What value of measured TGI is listed for Brc1cccc(C2(CCCC3(c4cccc(Br)n4)OCCO3)OCCO2)n1 ? > 100 µM

What value of measured TGI is listed for Cc1cc(=O)c2c(O)c3c(O)cc(O)c4c5c(O)cc(O)c6c(O)c7c(=O)cc(C)c8c1c2c(c34)c(c65)c78 ? > 100 µM

What value of measured TGI is listed for CCCCNC(=S)/N=C/c1c(O)c2ccccc2oc1=O ? > 100 µM

What value of measured TGI is listed for COc1cc(N(C)C)ccc1/C=c1/c2ccccc2n2c1cc(-c1ccccc1)[n+]2C ? 2.02 µM

What value of measured TGI is listed for Cc1ccc(C(=O)Nc2ccc(CN3CCN(C)CC3)c(C(F)(F)F)c2)cc1C#Cc1cncc2ncccc12 ? 1.76 µM

What value of measured TGI is listed for Cc1ccccc1NC(=S)N/N=C(/c1ccccc1)c1ccccn1 ? 15.4 µM

What value of measured TGI is listed for OCCc1cnco1 ? > 100 µM

What value of measured TGI is listed for Cc1c(N2C(=O)/C(=C\c3ccc(O)cc3)N=C2c2ccccc2)c(=O)n(-c2ccccc2)n1C ? > 100 µM

What value of measured TGI is listed for COc1ccc(CNc2nc3ccccc3nc2-c2cccs2)cc1OC ? > 100 µM

What value of measured TGI is listed for NNC(=O)CC(=O)Nc1ccccc1F ? > 100 µM

What value of measured TGI is listed for O=C(Nc1ccc2ccccc2c1)Nn1cnnc1 ? > 100 µM

What value of measured TGI is listed for CCC(=N\NC(N)=S)/C(C)=N/O ? > 100 µM

What value of measured TGI is listed for CCOC(=O)N(CC)c1c(C(F)(F)F)cc(-c2ccccc2)[nH]c1=O ? > 100 µM
